# measured.target: Serine/threonine-protein kinase DCLK3 (Homo sapiens, UniProt Q9C098)
# Sequence (Q9C098 whole entry): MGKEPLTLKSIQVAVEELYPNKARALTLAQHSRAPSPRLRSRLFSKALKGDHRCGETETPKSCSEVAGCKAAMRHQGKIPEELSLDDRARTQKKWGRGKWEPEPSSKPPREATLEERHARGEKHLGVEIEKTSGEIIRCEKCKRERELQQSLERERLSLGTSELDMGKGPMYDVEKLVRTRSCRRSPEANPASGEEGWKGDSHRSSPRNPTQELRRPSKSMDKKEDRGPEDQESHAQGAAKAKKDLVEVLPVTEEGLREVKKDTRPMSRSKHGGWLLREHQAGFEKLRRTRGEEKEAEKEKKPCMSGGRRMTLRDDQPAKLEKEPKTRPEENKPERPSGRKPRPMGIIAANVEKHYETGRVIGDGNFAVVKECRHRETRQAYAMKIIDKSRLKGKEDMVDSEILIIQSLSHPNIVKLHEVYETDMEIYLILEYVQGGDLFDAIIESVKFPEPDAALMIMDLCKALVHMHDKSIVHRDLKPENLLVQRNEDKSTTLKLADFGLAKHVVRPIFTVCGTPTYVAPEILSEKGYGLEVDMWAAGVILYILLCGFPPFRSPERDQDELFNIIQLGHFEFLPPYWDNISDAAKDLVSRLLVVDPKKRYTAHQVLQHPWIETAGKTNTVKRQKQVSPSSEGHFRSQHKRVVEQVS
# procedure.details: Binding affinity to recombinant full-length N-terminal His-FLAG-tagged DCLK3 (unknown origin) expressed in baculovirus infected Sf9 insect cells incubated for 1 hr by TR-FRET assay
Recorded Kd by entry

Exercise: Suppose we examine the molecule CO[C@@H]1[C@H](NCCOCCOCCOCCNC(=O)CCC2=[N+]3C(=Cc4c(C)cc(C)n4[B-]3(F)F)C=C2)C[C@H]2O[C@]1(C)n1c3ccccc3c3c4c(c5c6ccccc6n2c5c31)C(=O)NC4 ; what Kd value has been reported?
Solution: 60 nM

Exercise: Value lookup for Kd; key = CO[C@@H]1[C@H](N(C)CCOCCOCCOCCNC(=O)CCC2=[N+]3C(=Cc4c(C)cc(C)n4[B-]3(F)F)C=C2)C[C@H]2O[C@]1(C)n1c3ccccc3c3c4c(c5c6ccccc6n2c5c31)C(=O)NC4
Solution: 104 nM
